Give measured cell viability for each item. Keep answers brief.
Tested on: MOLM14;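 also: after 48 h exposure read by CellTiter-Glo luminescence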
Assay: cell viability relative to vehicle control; higher = less cytotoxic
Details: 10 µM; SRSF2 genotype: SRSF2 P95H/wt
Give bare numbers, in %.

compound: CC(=O)[O-].[K+] [Potassium acetate]
readout-label: cell viability
reported-measurement: 96.7
//
compound: C=CC(=O)Nc1cccc(Nc2nc(Nc3ccc(N4CCN(C(C)=O)CC4)cc3OC)ncc2C(F)(F)F)c1 [Rociletinib (CO-1686, AVL-301)]
readout-label: cell viability
reported-measurement: 6.76
//
compound: CC(NC(=O)C(O)c1cc(F)cc(F)c1)C(=O)NC1C(=O)N(C)c2ccccc2-c2ccccc21 (stereo not drawn)
readout-label: cell viability
reported-measurement: 102
//
compound: CC(C)=CCCC(C)(OC1OC(COC2OCC(O)C(O)C2O)C(O)C(O)C1O)C1CCC2(C)C1C(O)CC1C3(C)CCC(OC4OC(CO)C(O)C(O)C4O)C(C)(C)C3CCC12C (stereo not drawn) [Gynostemma Extract]
readout-label: cell viability
reported-measurement: 101
//
compound: Cc1cc(NC(=O)Nc2ccc(N(C)C)cc2)c2cc(F)cc(F)c2n1
readout-label: cell viability
reported-measurement: 102

Hello, I would appreciate it if you could give cell viability for each entry below.
1. Cc1nc(Nc2cnn(C3CCNCC3)c2)nc2c1N(C)C(=O)c1cc3ccccc3cc1N2C
2. COc1ccccc1N1CCN(CC(O)COc2cccc3ccccc23)CC1 (stereo not drawn) [Naftopidil (Flivas)]
3. C[C@H](NC(=O)/C(C#N)=C/c1cccc(Br)n1)c1ccccc1

1: 15.9; 2: 64.1; 3: 2.5
